- STUDY TARGET: EGFR tyrosine kinase (Homo sapiens)
- Construct: Recombinant intracellular fragments of EGFR, erbB2 and erbB4
- Sequence (P00533 669-1210 limits assumed): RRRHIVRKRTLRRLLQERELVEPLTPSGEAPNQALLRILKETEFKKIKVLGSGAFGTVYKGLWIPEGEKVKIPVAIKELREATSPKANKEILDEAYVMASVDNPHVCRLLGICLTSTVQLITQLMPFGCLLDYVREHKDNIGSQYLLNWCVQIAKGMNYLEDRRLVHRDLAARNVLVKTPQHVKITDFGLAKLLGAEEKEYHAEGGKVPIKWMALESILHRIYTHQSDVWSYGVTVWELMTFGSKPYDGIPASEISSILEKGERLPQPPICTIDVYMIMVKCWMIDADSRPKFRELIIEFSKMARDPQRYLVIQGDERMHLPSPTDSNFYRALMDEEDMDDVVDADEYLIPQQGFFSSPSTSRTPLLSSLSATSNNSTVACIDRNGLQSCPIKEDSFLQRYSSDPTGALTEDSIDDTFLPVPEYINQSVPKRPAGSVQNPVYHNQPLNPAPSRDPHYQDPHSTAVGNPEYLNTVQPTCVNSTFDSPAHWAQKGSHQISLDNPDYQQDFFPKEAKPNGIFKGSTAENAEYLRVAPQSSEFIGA
- PROTOCOL DESCRIPTION: Test (a) protein tyrosine kinase phosphorylation assay, EGFR
- SETUP CONDITIONS: ATP at Km concentration; read-out: IC50 Test (a): Inhibition of EGFR tyrosine kinase protein phosphorylation
Field: IC50. Provide a value for each of the molecules that follow.
Just the number in nM, nothing appended.

Note to self: IC50 recorded for C[C@H](CN(C)C(=O)CO)Oc1cccc2ncnc(Nc3ccc4c(ccn4Cc4ccccn4)c3)c12 [Example 1] was 780

Note to self: IC50 recorded for C[C@H](COc1cccc2ncnc(Nc3ccc4c(ccn4Cc4ccccn4)c3)c12)N(C)C(=O)CO [Example 2] was 63
